Data origin: the supplement of paper PMC10307832

Reported relative viability values for a set of molecules
Test system: NCI-H596
PROTOCOL NOTES: relative viability (nuclei count vs DMSO), 5 days (fraction); higher = more cells survive
EXPERIMENTAL CONDITIONS: first compound 0.6325 µM

MOLECULE: COCC1(CO)C(=O)C2CCN1CC2 (stereo not drawn) [PRIMA-1MET] + Nc1nc2[nH]cc(CCc3ccc(C(=O)N[C@@H](CCC(=O)O)C(=O)O)cc3)c2c(=O)[nH]1 [Pemetrexed] (partner 0.2 µM)
TESTED SYSTEM: NCI-H596
relative viability: 0.481

MOLECULE: COCC1(CO)C(=O)C2CCN1CC2 (stereo not drawn) [PRIMA-1MET] + NC(=O)Nc1cc(-c2cccc(F)c2)sc1C(=O)N[C@H]1CCCNC1 [AZD7762] (partner 0.2 µM)
TESTED SYSTEM: NCI-H596
relative viability: 1

MOLECULE: COCC1(CO)C(=O)C2CCN1CC2 (stereo not drawn) [PRIMA-1MET] + N=C(N)NC(=N)NCCc1ccccc1 [Phenformin] (partner 250 µM)
TESTED SYSTEM: NCI-H596
relative viability: 0.794
